Tested on: WT HBV produced by the 2.2.15 cells
Experiment: PMEA inhibition of HBV DNA production in 2.2.15 stable HBV-producer cells
Format: cell-based
Conditions: Hepatitis B virus, 168 h, HBV DNA in media on day 7, read-out: IC50 PMEA (95%Cl)
property: IC50 (nM)
Write the value in nM as a bare number.

Item Nc1ncnc2c1ncn2CCOCP(=O)(O)O [PMEA, 9-[(R)-2-(phosphonomethoxy)ethyl]adenine] : provide IC50 430

Provenance of the data: patent EP1113802B1
